For each of the binders below, state its ECM Score (1 µM).
Molecular target: extracellular matrix (ECM) proteins
Assay: ECM plate ELISA (Matrigel), 1 uM antibody, A450 over wells without sample
Reply with the value as a number alone.

Prompt: Please look up its ECM Score (1 µM): hz20-12 (antibody, V domains shown, light constant region not tied to this antibody) VH: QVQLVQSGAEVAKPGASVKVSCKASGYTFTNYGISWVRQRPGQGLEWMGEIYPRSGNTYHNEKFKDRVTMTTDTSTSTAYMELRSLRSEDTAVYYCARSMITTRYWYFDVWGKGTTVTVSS VL: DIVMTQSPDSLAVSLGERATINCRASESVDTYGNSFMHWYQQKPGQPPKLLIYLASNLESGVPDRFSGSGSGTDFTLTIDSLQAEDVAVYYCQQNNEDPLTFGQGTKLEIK
Completion: 3

Prompt: Now consider hz20-9 (antibody, V domains shown, light constant region not tied to this antibody) VH: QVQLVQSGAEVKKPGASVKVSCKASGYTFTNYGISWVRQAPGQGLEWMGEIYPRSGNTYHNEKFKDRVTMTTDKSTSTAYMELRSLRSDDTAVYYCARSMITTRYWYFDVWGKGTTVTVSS VL: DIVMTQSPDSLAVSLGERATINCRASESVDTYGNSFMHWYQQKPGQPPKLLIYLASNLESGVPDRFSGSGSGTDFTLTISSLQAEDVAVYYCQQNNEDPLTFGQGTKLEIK and answer again.
Completion: 19

Prompt: Now consider hz13-5 (antibody, IgG1, V domains shown, also called clone 13-based hz13-5 antibody; parent hz13-5) VH: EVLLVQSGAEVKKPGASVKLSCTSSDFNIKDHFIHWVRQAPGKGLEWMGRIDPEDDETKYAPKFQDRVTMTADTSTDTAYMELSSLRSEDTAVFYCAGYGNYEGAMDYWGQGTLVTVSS VL: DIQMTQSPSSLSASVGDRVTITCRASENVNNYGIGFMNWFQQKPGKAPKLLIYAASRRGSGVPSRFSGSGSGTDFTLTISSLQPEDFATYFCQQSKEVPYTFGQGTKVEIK and answer again.
Completion: 1
